Test: Anticancer human tumor 997537-175-T-J1-PDC patient-derived colon adenocarcinoma cell line growth inhibition [POLQ]
Settings: 997537-175-T-J1-PDC complex spheroid viability, combination with POLQ inhibitors; second compound 1 µM; first compound 10 µM; stronger effect = lower value
quantityMeasured: viability, T/C (%)
Reply numerically in %, unit not repeated.

Before answering, review these 4 worked examples.
O=C(Nc1ccc(O)c(NS(=O)(=O)c2ccc(F)cc2)c1)c1ccc(-c2ccccc2)cc1 + Cc1cccc(N(C)C(=O)C2C(O)CCN2c2nc(C)cc(C(F)(F)F)c2C#N)c1    98.6
COc1cc2cc(C(=O)CCC(=O)O)sc2cc1OC + Nc1ccc(C#CCN(C(=O)Cc2ncc(C(F)(F)F)cc2C(F)(F)F)c2ccc(F)cc2)nn1    89.9
COc1cc(C2c3cc4c(cc3C(OC3OC5COC(C)OC5C(O)C3O)C3COC(=O)C23)OCO4)cc(OC)c1O (stereo not given) + Cc1cccc(N(C)C(=O)C2C(O)CCN2c2nc(C)cc(C(F)(F)F)c2C#N)c1    51.2
CC1COCCN1c1cc(C2(S(C)(=N)=O)CC2)nc(-c2ccnc3[nH]ccc23)n1 (stereo not given) + Cc1cccc(N(C)C(=O)C2C(O)CCN2c2nc(C)cc(C(F)(F)F)c2C#N)c1    52.7

Now look at this entry.
Returns the measured viability, T/C for the input molecule. Input: COc1cccc2c1C(=O)c1c(O)c3c(c(O)c1C2=O)CC(O)(C(=O)CO)CC3OC1CC(N)C(O)C(C)O1 (stereo not given) + Nc1ccc(C#CCN(C(=O)Cc2ncc(C(F)(F)F)cc2C(F)(F)F)c2ccc(F)cc2)nn1
10.2

---

Assay: Anticancer human tumor 997537-175-T-J1-PDC cell line growth inhibition [POLQ];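 further: luminescence signal used as a surrogate for viable cells; spheroids exposed to drugs for seven days before readout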
Conditions: 997537-175-T-J1-PDC complex spheroid viability, combination with POLQ inhibitors; second compound 1 µM; first compound 10 µM; stronger effect = lower value
quantityMeasured: viability, T/C (%)
Reply numerically in %, unit not repeated.

Before answering, review these 6 worked examples.
CNCc1ccc(-c2[nH]c3cc(F)cc4c3c2CCNC4=O)cc1 + Nc1ccc(C#CCN(C(=O)Cc2ncc(C(F)(F)F)cc2C(F)(F)F)c2ccc(F)cc2)nn1    89.8
O=C(c1cc(Cc2n[nH]c(=O)c3ccccc23)ccc1F)N1CCN(C(=O)C2CC2)CC1 + Nc1ccc(C#CCN(C(=O)Cc2ncc(C(F)(F)F)cc2C(F)(F)F)c2ccc(F)cc2)nn1    99.3
CCCS(=O)(=O)Nc1ccc(F)c(C(=O)c2c[nH]c3ncc(-c4ccc(Cl)cc4)cc23)c1F + COC1C(OC(N)=O)C(O)C(Oc2ccc3c(O)c(NC(=O)c4ccc(O)c(CC=C(C)C)c4)c(=O)oc3c2C)OC1(C)C    21.7
C#Cc1c(F)ccc2cc(O)cc(-c3ncc4c(N5CC6CCC(C5)N6)nc(OCC56CCCN5CC(F)C6)nc4c3F)c12 (stereo unspecified) + Cc1cccc(N(C)C(=O)C2C(O)CCN2c2nc(C)cc(C(F)(F)F)c2C#N)c1    102
O=c1[nH]cc(F)c(=O)[nH]1 + Nc1ccc(C#CCN(C(=O)Cc2ncc(C(F)(F)F)cc2C(F)(F)F)c2ccc(F)cc2)nn1    79.9
COc1cccc2c1C(=O)c1c(O)c3c(c(O)c1C2=O)CC(O)(C(=O)CO)CC3OC1CC(N)C(O)C(C)O1 (stereo unspecified) + Cc1cccc(N(C)C(=O)C2C(O)CCN2c2nc(C)cc(C(F)(F)F)c2C#N)c1    9.7

Returns the measured viability, T/C for the input compound. Input: Nc1ccn(C2OC(CO)C(O)C2(F)F)c(=O)n1 (stereo unspecified) + Nc1ccc(C#CCN(C(=O)Cc2ncc(C(F)(F)F)cc2C(F)(F)F)c2ccc(F)cc2)nn1
77.5

Now consider CCc1cc2c(N3CCc4c(cc(Cn5ccnc5)cc4-c4cn(C)nc4C(F)(F)F)C3=O)cc(C)nc2c(OC)n1 + Cc1cccc(N(C)C(=O)C2C(O)CCN2c2nc(C)cc(C(F)(F)F)c2C#N)c1 .
63.3

Now consider CC1COCCN1c1cc(C2(S(C)(=N)=O)CC2)nc(-c2ccnc3[nH]ccc23)n1 (stereo unspecified) + Nc1ccc(C#CCN(C(=O)Cc2ncc(C(F)(F)F)cc2C(F)(F)F)c2ccc(F)cc2)nn1 .
52

Now consider CC1COCCN1c1cc(C2(O)CC3CCC(C2)O3)c2cnn(-c3ccn[nH]3)c2n1 (stereo unspecified) + COC1C(OC(N)=O)C(O)C(Oc2ccc3c(O)c(NC(=O)c4ccc(O)c(CC=C(C)C)c4)c(=O)oc3c2C)OC1(C)C .
42.8

Now consider CCc1cc2c(N3CCc4c(cc(Cn5ccnc5)cc4-c4cn(C)nc4C(F)(F)F)C3=O)ccnc2c(OC)n1 + COC1C(OC(N)=O)C(O)C(Oc2ccc3c(O)c(NC(=O)c4ccc(O)c(CC=C(C)C)c4)c(=O)oc3c2C)OC1(C)C .
52.3

---

Experiment: Anticancer human tumor 997537-175-T-J1-PDC cell line growth inhibition [POLQ];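 further: luminescence signal used as a surrogate for viable cells; spheroids exposed to drugs for seven days before readout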
Conditions: 997537-175-T-J1-PDC complex spheroid viability, combination with POLQ inhibitors; second compound 10 µM; first compound 1 µM; stronger effect = lower value
quantityMeasured: viability, T/C

Before answering, review these 2 worked examples.
O=C(c1cc(Cc2n[nH]c(=O)c3ccccc23)ccc1F)N1CCN(C(=O)C2CC2)CC1 + Cc1cccc(N(C)C(=O)C2C(O)CCN2c2nc(C)cc(C(F)(F)F)c2C#N)c1    97%
C#Cc1c(F)ccc2cc(O)cc(-c3ncc4c(N5CC6CCC(C5)N6)nc(OCC56CCCN5CC(F)C6)nc4c3F)c12 (stereo not drawn) + COC1C(OC(N)=O)C(O)C(Oc2ccc3c(O)c(NC(=O)c4ccc(O)c(CC=C(C)C)c4)c(=O)oc3c2C)OC1(C)C    106%

Now look at this entry.
Returns the measured viability, T/C for the input compound. Input: COc1ccc([C@@H](O)c2cc(-c3ncnc4cc(N5CCOCC5)ccc34)c(F)cc2Cl)nn1 + Cc1cccc(N(C)C(=O)C2C(O)CCN2c2nc(C)cc(C(F)(F)F)c2C#N)c1
112%

---

Experiment: Anticancer human tumor 997537-175-T-J1-PDC cell line growth inhibition [POLQ];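 further: luminescence signal used as a surrogate for viable cells; spheroids exposed to drugs for seven days before readout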
Details: 997537-175-T-J1-PDC complex spheroid viability, combination with POLQ inhibitors; curve of first compound; second compound 3.16 µM
pIC50: −log10 of the molar value.
quantityMeasured: pIC50

Before answering, review these 3 worked examples.
CNCc1ccc(-c2[nH]c3cc(F)cc4c3c2CCNC4=O)cc1 + COC1C(OC(N)=O)C(O)C(Oc2ccc3c(O)c(NC(=O)c4ccc(O)c(CC=C(C)C)c4)c(=O)oc3c2C)OC1(C)C    < 5.00
CCCS(=O)(=O)Nc1ccc(F)c(C(=O)c2c[nH]c3ncc(-c4ccc(Cl)cc4)cc23)c1F + Nc1ccc(C#CCN(C(=O)Cc2ncc(C(F)(F)F)cc2C(F)(F)F)c2ccc(F)cc2)nn1    5.22
COc1ccc([C@@H](O)c2cc(-c3ncnc4cc(N5CCOCC5)ccc34)c(F)cc2Cl)nn1 + COC1C(OC(N)=O)C(O)C(Oc2ccc3c(O)c(NC(=O)c4ccc(O)c(CC=C(C)C)c4)c(=O)oc3c2C)OC1(C)C    < 5.00

Returns the measured pIC50 for the input molecule. Input: O=C(Nc1ccc(O)c(NS(=O)(=O)c2ccc(F)cc2)c1)c1ccc(-c2ccccc2)cc1 + Cc1cccc(N(C)C(=O)C2C(O)CCN2c2nc(C)cc(C(F)(F)F)c2C#N)c1
< 5.00

Now consider CC[C@@]1(O)C(=O)OCc2c1cc1n(c2=O)Cc2cc3c(CN(C)C)c(O)ccc3nc2-1 + COC1C(OC(N)=O)C(O)C(Oc2ccc3c(O)c(NC(=O)c4ccc(O)c(CC=C(C)C)c4)c(=O)oc3c2C)OC1(C)C .
< 7.00

Now consider C#Cc1c(F)ccc2cc(O)cc(-c3ncc4c(N5CC6CCC(C5)N6)nc(OCC56CCCN5CC(F)C6)nc4c3F)c12 (stereo unspecified) + COC1C(OC(N)=O)C(O)C(Oc2ccc3c(O)c(NC(=O)c4ccc(O)c(CC=C(C)C)c4)c(=O)oc3c2C)OC1(C)C .
< 5.00

Now consider COc1cccc2c1C(=O)c1c(O)c3c(c(O)c1C2=O)CC(O)(C(=O)CO)CC3OC1CC(N)C(O)C(C)O1 (stereo unspecified) + Cc1cccc(N(C)C(=O)C2C(O)CCN2c2nc(C)cc(C(F)(F)F)c2C#N)c1 .
5.70

Now consider Nc1ccn(C2OC(CO)C(O)C2(F)F)c(=O)n1 (stereo unspecified) + Cc1cccc(N(C)C(=O)C2C(O)CCN2c2nc(C)cc(C(F)(F)F)c2C#N)c1 .
< 5.00

Now consider COc1cc2cc(C(=O)CCC(=O)O)sc2cc1OC + Cc1cccc(N(C)C(=O)C2C(O)CCN2c2nc(C)cc(C(F)(F)F)c2C#N)c1 .
< 5.00

Now consider O=C(Nc1ccc(O)c(NS(=O)(=O)c2ccc(F)cc2)c1)c1ccc(-c2ccccc2)cc1 + Nc1ccc(C#CCN(C(=O)Cc2ncc(C(F)(F)F)cc2C(F)(F)F)c2ccc(F)cc2)nn1 .
< 5.00

Now consider CC(C)n1c(=O)n(C)c2cnc3cc(F)c(-c4ccc(OCCCN5CCCCC5)nc4)cc3c21 + COC1C(OC(N)=O)C(O)C(Oc2ccc3c(O)c(NC(=O)c4ccc(O)c(CC=C(C)C)c4)c(=O)oc3c2C)OC1(C)C .
< 5.00
